biological target: Calcium/calmodulin-dependent protein kinase kinase 2 (Homo sapiens); also: in the data inactive means no Kd found up to 30 µM
Sequence (Q96RR4 whole entry): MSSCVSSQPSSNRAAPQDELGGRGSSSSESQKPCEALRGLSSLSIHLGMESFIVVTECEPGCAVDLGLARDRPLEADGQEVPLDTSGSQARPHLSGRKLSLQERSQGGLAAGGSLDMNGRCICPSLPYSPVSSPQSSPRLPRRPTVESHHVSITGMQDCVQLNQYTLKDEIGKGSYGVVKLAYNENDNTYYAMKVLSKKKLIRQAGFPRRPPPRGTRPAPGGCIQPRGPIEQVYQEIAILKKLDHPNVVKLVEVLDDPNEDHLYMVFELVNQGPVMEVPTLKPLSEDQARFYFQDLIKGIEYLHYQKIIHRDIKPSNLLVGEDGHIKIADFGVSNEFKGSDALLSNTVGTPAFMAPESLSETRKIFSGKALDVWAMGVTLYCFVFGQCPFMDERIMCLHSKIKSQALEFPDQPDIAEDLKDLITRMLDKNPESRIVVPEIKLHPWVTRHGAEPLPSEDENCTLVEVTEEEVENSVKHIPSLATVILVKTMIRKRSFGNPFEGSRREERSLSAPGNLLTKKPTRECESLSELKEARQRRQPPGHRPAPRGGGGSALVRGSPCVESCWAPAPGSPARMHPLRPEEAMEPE
Structures can show the parent of a compound that is named as a salt. Calls of active or inactive are those of the source.
Choose the fitting class; nothing outside yes (1) (active), no (0) (inactive) is accepted.

molecule	class name
FC(F)(F)c1ccc(/C=C/c2nc(COc3ccc(CCCCn4ccnn4)cc3)co2)cc1	no (0)
Cn1cc(-c2cnn3c(N)c(Br)c([C@@H]4CCCNC4)nc23)cn1	no (0)
CC(=O)NCC(=O)N1[C@@H]2CC[C@H]1c1ccc(Nc3ncc(C(F)(F)F)c(NC4CCC4)n3)cc12	yes (1)
COCC(=O)NC/C=C/c1ccc2ncnc(Nc3ccc(Oc4ccc(C)nc4)c(C)c3)c2c1	no (0)
Cc1csc(-c2nnc(Nc3ccc(Oc4ncccc4-c4ccnc(N)n4)cc3)c3ccccc23)c1	no (0)

Query: Hey, what did the test say about Cc1cc(Nc2ncnc3ccc(NC4=NC(C)(C)CO4)cc23)ccc1Oc1ccn2ncnc2c1 ?
Reply: no (0)

Query: Hey, what did the test say about Cc1cnc(NC(=O)Nc2cc(Br)c(C)cc2OC[C@@H]2CNCCO2)cn1 ?
Reply: no (0)

Query: Hey, what did the test say about COc1ccc(S(=O)(=O)N(C(C)=O)c2ccccc2/C=C/c2cc[n+]([O-])cc2)cc1 ?
Reply: no (0)

Query: Hey, what did the test say about COc1cc2ncnc(Oc3cccc(NC(=O)Nc4cc(C(C)(C)C(F)(F)F)on4)c3)c2cc1OC ?
Reply: no (0)

Query: Hey, what did the test say about O=C(Nc1cc(C(F)(F)F)cc(C(F)(F)F)c1)c1cc(Cl)ccc1O ?
Reply: no (0)

Query: Hey, what did the test say about CCOc1cc2ncc(C#N)c(Nc3ccc(F)c(Cl)c3)c2cc1NC(=O)/C=C/CN(C)C ?
Reply: yes (1)

Query: Hey, what did the test say about Cc1nc2cc(-n3ncc(C(=O)c4cc5ccccc5[nH]4)c3N)ccc2[nH]1 ?
Reply: no (0)

Query: Hey, what did the test say about CN1CCN(CCOc2cc(OC3CCOCC3)c3c(Nc4c(Cl)ccc5c4OCO5)ncnc3c2)CC1 ?
Reply: no (0)

Query: Hey, what did the test say about Cc1cc(Nc2ncc(Cl)c(Nc3ccccc3S(=O)(=O)C(C)C)n2)c(OC(C)C)cc1C1CCNCC1 ?
Reply: yes (1)

Query: Hey, what did the test say about CCCCCCCCCCCCCCCCCCOP(=O)([O-])OC1CC[N+](C)(C)CC1 ?
Reply: no (0)

Query: Hey, what did the test say about CCn1cc(-c2ccnc3[nH]c(-c4cccc(CN(C)C)c4)cc23)c(-c2ccc(NC(=O)N(C)C)cc2)n1 ?
Reply: no (0)

Query: Hey, what did the test say about Cn1cc(-c2cnc3ccc4ccc(CS(=O)(=O)NCc5ccccn5)cc4c(=O)c3c2)cn1 ?
Reply: no (0)

Query: Hey, what did the test say about O=C(Nc1c[nH]nc1-c1nc2cc(CN3CCOCC3)ccc2[nH]1)NC1CC1 ?
Reply: no (0)

Query: Hey, what did the test say about COc1ncc(-c2ccc3nccc(-c4ccnnc4)c3c2)cc1NS(=O)(=O)c1ccc(F)cc1F ?
Reply: no (0)

Query: Hey, what did the test say about Cc1cccc(-c2nn3c(c2-c2ccnc4ccc(C(N)=O)cc24)CCC3)n1 ?
Reply: no (0)

Query: Hey, what did the test say about CCS(=O)(=O)N1CCN(c2ccc(Nc3ncc(C(N)=O)c(NC4CC4)n3)cc2)CC1 [Cerdulatinib Hydrochloride] ?
Reply: no (0)

----------
target: Dual specificity mitogen-activated protein kinase kinase 1 (Homo sapiens); also: in the data inactive means no Kd found up to 30 µM
Sequence (Q02750 whole entry): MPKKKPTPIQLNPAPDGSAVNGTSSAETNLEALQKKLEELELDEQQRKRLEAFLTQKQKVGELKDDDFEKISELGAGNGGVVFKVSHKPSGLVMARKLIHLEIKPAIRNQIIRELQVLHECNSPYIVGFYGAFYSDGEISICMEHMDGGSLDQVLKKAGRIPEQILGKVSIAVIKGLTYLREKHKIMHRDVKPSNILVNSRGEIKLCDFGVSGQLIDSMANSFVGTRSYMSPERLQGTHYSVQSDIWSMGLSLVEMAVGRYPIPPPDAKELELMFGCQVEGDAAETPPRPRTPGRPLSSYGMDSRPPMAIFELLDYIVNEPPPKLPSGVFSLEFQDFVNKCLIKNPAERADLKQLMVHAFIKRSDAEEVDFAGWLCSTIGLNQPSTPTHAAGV
Counter-ions that a name gives are not always drawn. Active and inactive are the calls of the source.
Choose the fitting class; nothing outside active, inactive is accepted.

These solved cases illustrate the format of a correct answer.
compound	class name
COc1ncc(-c2ccc3nccc(-c4ccnnc4)c3c2)cc1NS(=O)(=O)c1ccc(F)cc1F	inactive
CCn1c(C(=O)N(C2CC2)C2CC2)cc2c3c(ncn3C)c(Nc3cc(C)n(C)n3)nc21	inactive
COc1cc2c(Nc3ccc(Cl)c(Cl)c3F)ncnc2cc1OC[C@@H]1C[C@@H]2CN(C)C[C@@H]2C1	inactive
O=C(Nc1cc(C(F)(F)F)cc(C(F)(F)F)c1)c1cc(Cl)ccc1O	inactive
CCS(=O)(=O)c1cccc(-c2cc(C(=O)NC3CCN(C)CC3)c(C)c3[nH]c4ncc(C)cc4c23)c1	inactive
Nc1ncnc2c1c(-c1cccc(OCc3ccccc3)c1)cn2[C@H]1C[C@@H](CN2CCC2)C1	active
CCS(=O)(=O)N1CCN(c2ccc(Nc3ncc(C(N)=O)c(NC4CC4)n3)cc2)CC1 [Cerdulatinib Hydrochloride]	inactive
NC(=O)Nc1cc(-c2cccc(F)c2)sc1C(=O)N[C@H]1CCCNC1	active

Query: Hey, what did the test say about Cc1nc(NC(=O)N2CCC[C@H]2C(N)=O)sc1-c1ccnc(C(C)(C)C(F)(F)F)c1 ?
Reply: inactive

----------
Active and inactive are the calls of the source.
Glycogen synthase kinase-3 alpha (Homo sapiens) measurements of Kd, listed per entry. Also: in the data inactive means no Kd found up to 30 µM.
Sequence (P49840 whole entry): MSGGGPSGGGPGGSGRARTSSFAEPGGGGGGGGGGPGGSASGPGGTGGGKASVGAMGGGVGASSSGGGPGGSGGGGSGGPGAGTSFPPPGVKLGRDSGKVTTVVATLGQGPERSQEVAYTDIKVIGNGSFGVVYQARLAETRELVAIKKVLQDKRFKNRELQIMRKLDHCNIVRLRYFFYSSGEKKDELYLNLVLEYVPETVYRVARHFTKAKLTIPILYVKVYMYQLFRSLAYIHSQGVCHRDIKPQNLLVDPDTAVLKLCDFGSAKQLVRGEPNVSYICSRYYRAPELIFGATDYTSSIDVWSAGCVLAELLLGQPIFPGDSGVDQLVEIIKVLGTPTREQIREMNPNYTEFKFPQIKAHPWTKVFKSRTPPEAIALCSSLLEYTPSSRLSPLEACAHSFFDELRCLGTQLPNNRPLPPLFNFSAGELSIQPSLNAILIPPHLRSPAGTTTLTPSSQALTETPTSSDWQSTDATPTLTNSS

molecule	measured target	experimental endpoint	reported result
COc1c(OCCCN2CCOCC2)ccc2c1N=C(NC(=O)c1cnc(N)nc1)N1CCN=C21	Glycogen synthase kinase-3 alpha (Homo sapiens)	Kd	> 30 µM (inactive)

Query: Could you share what Kd was measured for O=C1NC(=O)[C@@H](c2cn3c4c(cccc24)CCC3)[C@@H]1c1c[nH]c2ccccc12 [TIVANTINIB] , tested on Glycogen synthase kinase-3 alpha (Homo sapiens)?; also: in the data inactive means no Kd found up to 30 µM
Reply: > 30 µM (inactive)

Query: Could you share what Kd was measured for Cc1nc(Nc2n[nH]c3c2CN(C(=O)N[C@H](CN(C)C)c2ccccc2)C3(C)C)c2sccc2n1 , tested on Glycogen synthase kinase-3 alpha (Homo sapiens)?; also: in the data inactive means no Kd found up to 30 µM
Reply: 2.09 µM (active)

Query: Could you share what Kd was measured for O=C(Nc1nc2cccc(-c3ccc(CN4CCS(=O)(=O)CC4)cc3)n2n1)C1CC1 , tested on Glycogen synthase kinase-3 alpha (Homo sapiens)?; also: in the data inactive means no Kd found up to 30 µM
Reply: > 30 µM (inactive)

Query: Could you share what Kd was measured for C#Cc1cccc(Nc2ncnc3cc(OC)c(OCCCCCCC(=O)NO)cc23)c1 , tested on Glycogen synthase kinase-3 alpha (Homo sapiens)?; also: in the data inactive means no Kd found up to 30 µM
Reply: > 30 µM (inactive)

Query: Could you share what Kd was measured for CCS(=O)(=O)c1cccc(-c2cc(C(=O)NC3CCN(C)CC3)c(C)c3[nH]c4ncc(C)cc4c23)c1 , tested on Glycogen synthase kinase-3 alpha (Homo sapiens)?; also: in the data inactive means no Kd found up to 30 µM
Reply: 22.5 µM (active)

Query: Could you share what Kd was measured for Cc1nc(NC(=O)N2CCC[C@H]2C(N)=O)sc1-c1ccnc(C(C)(C)C(F)(F)F)c1 , tested on Glycogen synthase kinase-3 alpha (Homo sapiens)?; also: in the data inactive means no Kd found up to 30 µM
Reply: > 30 µM (inactive)

Query: Could you share what Kd was measured for COc1cc2c(Nc3ccc(Cl)c(Cl)c3F)ncnc2cc1OC[C@@H]1C[C@@H]2CN(C)C[C@@H]2C1 , tested on Glycogen synthase kinase-3 alpha (Homo sapiens)?; also: in the data inactive means no Kd found up to 30 µM
Reply: > 30 µM (inactive)

----------
UniProtKB Q00535 measurements of Kd, listed per entry.
Sequence (Q00535 whole entry): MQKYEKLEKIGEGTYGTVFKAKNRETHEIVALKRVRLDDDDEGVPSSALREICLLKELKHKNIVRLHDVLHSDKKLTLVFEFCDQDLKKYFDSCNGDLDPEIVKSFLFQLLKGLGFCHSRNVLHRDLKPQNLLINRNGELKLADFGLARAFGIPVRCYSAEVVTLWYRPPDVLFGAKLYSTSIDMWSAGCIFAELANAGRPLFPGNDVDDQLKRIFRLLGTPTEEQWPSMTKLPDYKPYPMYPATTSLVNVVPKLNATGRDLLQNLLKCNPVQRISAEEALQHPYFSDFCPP
Calls of active or inactive are those of the source.

compound	experimental endpoint	reported result
Cn1cc(-c2cnn3c(N)c(Br)c([C@@H]4CCCNC4)nc23)cn1 [SCH-900776]	Kd	> 30 µM (inactive)
Cc1csc(-c2nnc(Nc3ccc(Oc4ncccc4-c4ccnc(N)n4)cc3)c3ccccc23)c1 [AMG-900]	Kd	> 30 µM (inactive)
CCS(=O)(=O)c1cccc(-c2cc(C(=O)NC3CCN(C)CC3)c(C)c3[nH]c4ncc(C)cc4c23)c1 [TAK-901]	Kd	> 30 µM (inactive)
CNC(=O)c1cc(Oc2ccc(NC(=O)Nc3cc(C(C)(C)C)nn3-c3ccc4ncccc4c3)c(F)c2)ccn1 [REBASTINIB]	Kd	1.5 µM (active)
Cc1cccc(-c2nn3c(c2-c2ccnc4ccc(C(N)=O)cc24)CCC3)n1 [GALUNISERTIB]	Kd	> 30 µM (inactive)
Nc1ncnc2c1c(-c1cccc(OCc3ccccc3)c1)cn2[C@H]1C[C@@H](CN2CCC2)C1 [AEW-541]	Kd	> 30 µM (inactive)

Query: Could you share what Kd was measured for CC(=O)c1cnc2ccc(-c3cc(Cl)c(O)c(Cl)c3)nc2c1N[C@H]1CC[C@H](CN(C)C)CC1 , tested on UniProtKB Q00535?
Reply: 0.253 µM (active)

Query: Could you share what Kd was measured for COCc1c(-c2ccc(NC(=O)Nc3cc(C(F)(F)F)ccc3F)c(F)c2)c2c(N)ncnn2c1CN1CCOCC1 , tested on UniProtKB Q00535?
Reply: > 30 µM (inactive)

----------
biological target: Bone morphogenetic protein receptor type-1B (Homo sapiens, UniProt O00238); also: in the data inactive means no Kd found up to 30 µM
Sequence (O00238 whole entry): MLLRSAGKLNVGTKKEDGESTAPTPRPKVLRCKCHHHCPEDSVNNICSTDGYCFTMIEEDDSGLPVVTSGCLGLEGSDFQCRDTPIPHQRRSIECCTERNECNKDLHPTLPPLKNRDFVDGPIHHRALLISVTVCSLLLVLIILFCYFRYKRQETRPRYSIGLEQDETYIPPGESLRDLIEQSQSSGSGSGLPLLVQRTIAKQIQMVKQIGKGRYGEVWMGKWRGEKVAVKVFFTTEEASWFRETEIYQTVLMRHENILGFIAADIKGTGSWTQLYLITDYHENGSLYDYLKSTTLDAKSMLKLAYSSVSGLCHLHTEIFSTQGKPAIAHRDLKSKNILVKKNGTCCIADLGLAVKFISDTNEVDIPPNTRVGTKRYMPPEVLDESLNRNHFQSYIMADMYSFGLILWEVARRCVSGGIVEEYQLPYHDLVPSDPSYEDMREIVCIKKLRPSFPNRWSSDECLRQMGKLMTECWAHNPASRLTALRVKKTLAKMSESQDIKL
Active and inactive are the calls of the source.
Choose the fitting class; nothing outside active, inactive is accepted.

These solved cases illustrate the format of a correct answer.
C=CC(=O)N1CCC[C@H](n2c(=O)n(-c3ccc(Oc4ccccc4)cc3)c3c(N)ncnc32)C1 inactive
COCc1c(-c2ccc(NC(=O)Nc3cc(C(F)(F)F)ccc3F)c(F)c2)c2c(N)ncnn2c1CN1CCOCC1 inactive
O=C(Nc1c[nH]nc1-c1nc2cc(CN3CCOCC3)ccc2[nH]1)NC1CC1 active

Query: Hey, what did the test say about CNC(=O)c1cccc2cc(Oc3ccnc4cc(OCC5(N)CC5)c(OC)cc34)ccc12 ?
Reply: inactive
